Answer each item with its documented Postemergence herbicidal rating CHEAL.
Test system: CHEAL (Lambsquarters, Common)
measurementDescription: Postemergence herbicidal evaluation
Assay type: in vivo, Chenopodium album
recordedConditions: Rate 0.0315 kg/ha
Field format: numeric only.

Exam item: Looking for the measured Postemergence herbicidal rating CHEAL of CCOC(=O)CN1C(=O)C(CC(N)=O)S/C1=N/c1cc(-n2c(=O)cc(C(F)(F)F)n(C)c2=O)c(F)cc1Cl (stereo not shown) , can you help?
Marked response: 9.0

Exam item: Looking for the measured Postemergence herbicidal rating CHEAL of C[C@@H](C(=O)O)N1C(=O)CS/C1=N/c1cc(-n2c(=O)cc(C(F)(F)F)n(C)c2=O)c(F)cc1Cl , can you help?
Marked response: 9.0

Exam item: Looking for the measured Postemergence herbicidal rating CHEAL of COC(=O)CCCN1C(=O)CSC1=Nc1cc(-n2c(=O)cc(C(F)(F)F)n(C)c2=O)c(F)cc1Cl , can you help?
Marked response: 1.0

Exam item: Looking for the measured Postemergence herbicidal rating CHEAL of Cn1c(C(F)(F)F)cc(=O)n(-c2cc(/N=C3/SC(CC(=O)O)C(=O)N3CC(=O)O)c(Cl)cc2F)c1=O (stereo not shown) , can you help?
Marked response: 0.0
